Biological target: SHP2-C SH2
Assay: SH2 binding enrichment of the phosphorylated peptide, bacterial display (enrichment ratio); higher = better substrate or ligand; peptides without Tyr show the background
Label 0.0 if SH2 binding enrichment falls below 0.8; label 1.0 in every other case.

SAAAIYTVRHP [PMP22_Y117]	1.0
IKRIDYEFVEM [ADA_Y84_A83D]	0.0
GGMAEYTRLHN [EHHADH_Y4]	0.0

[Q] Answer whether SH2 binding enrichment of RPSRWYQFPVA [ANOS1_Y259_R262P] is greater than or equal to 0.8.
[A] 1.0

[Q] Queued: PYRQWYESHYA [RPS8_Y113]
[A] 1.0

[Q] Queued: DDLEVYLKHPL [SACS_Y3477_L3481P]
[A] 0.0

[Q] Queued: DTYDPYLDVAL [USP36_Y268]
[A] 0.0

[Q] Queued: EVTQDYGLDPK [FH_Y110_N107T]
[A] 0.0

====

Reported phosphorylation enrichment values follow for various sequences
System: AncSZ
Experiment: phosphorylation enrichment, bacterial display (enrichment ratio); higher = better substrate or ligand; peptides without Tyr show the background
Output: the number by itself.

SDYYAYSPVQE [H6PD_Y449_R453Q]	6.17
MNLLGYRQVRS [CHST4_Y359_H361Q]	0.693
ALAAPYVLFPS [CEFIP_Y1332_G1337S_YF]	0.675
RRAVKYLQMVG [AVPR2_Y117_C112R]	1.13
TMKSHYMELFD [BBS2_Y644_R643H_YF]	1.1
LRFKQYLRNPP [SHC1_Y315]	0.957
RLSVDCGKKSK [TUBA4A_Y161_Y161C]	0.684
FGSGNYNVFGN [HNRNPA2B1_Y300_D302V_YF]	0.575

Please examine the following record next.
[Q] GET /values?readout=phosphorylation enrichment&item= VYAANYYKLLG [ROR2_Y645_D644N]
[A] 0.779

====

Reported phosphorylation enrichment values follow for various sequences
Biological target: EPHB1 (UniProt P54762)
Sequence (P54762 whole entry, looked up): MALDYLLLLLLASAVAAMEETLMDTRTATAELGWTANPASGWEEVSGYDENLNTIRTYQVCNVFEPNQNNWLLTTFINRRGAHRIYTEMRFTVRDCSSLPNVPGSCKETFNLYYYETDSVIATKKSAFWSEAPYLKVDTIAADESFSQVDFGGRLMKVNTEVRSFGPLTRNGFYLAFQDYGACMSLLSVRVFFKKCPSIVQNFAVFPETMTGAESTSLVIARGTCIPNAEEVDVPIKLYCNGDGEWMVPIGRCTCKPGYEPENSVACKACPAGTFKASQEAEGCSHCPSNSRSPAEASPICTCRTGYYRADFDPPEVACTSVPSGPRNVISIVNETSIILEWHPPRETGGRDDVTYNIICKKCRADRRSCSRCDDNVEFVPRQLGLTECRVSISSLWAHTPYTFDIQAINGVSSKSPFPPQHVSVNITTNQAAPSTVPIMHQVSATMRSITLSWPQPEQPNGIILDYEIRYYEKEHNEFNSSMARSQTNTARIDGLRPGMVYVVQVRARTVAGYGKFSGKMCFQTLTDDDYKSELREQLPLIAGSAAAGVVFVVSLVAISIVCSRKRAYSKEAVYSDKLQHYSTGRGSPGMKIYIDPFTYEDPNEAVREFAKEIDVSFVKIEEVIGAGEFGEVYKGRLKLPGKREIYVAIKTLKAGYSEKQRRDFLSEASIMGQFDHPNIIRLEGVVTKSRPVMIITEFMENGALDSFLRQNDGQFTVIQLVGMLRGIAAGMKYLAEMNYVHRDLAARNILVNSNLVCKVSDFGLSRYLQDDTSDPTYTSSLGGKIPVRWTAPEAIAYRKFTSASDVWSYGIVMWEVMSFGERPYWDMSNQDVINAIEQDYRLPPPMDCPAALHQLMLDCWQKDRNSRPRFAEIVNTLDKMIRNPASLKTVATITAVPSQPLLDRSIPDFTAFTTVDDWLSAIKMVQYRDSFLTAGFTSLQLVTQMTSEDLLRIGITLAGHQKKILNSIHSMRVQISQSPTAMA
Assay: phosphorylation enrichment, bacterial display (enrichment ratio); higher = better substrate or ligand; peptides without Tyr show the background

# count of solved cases: 5
LTDRGYSFVTT [ACTA1_Y200_E197D]	0.852
GDEVEYMLVSF [GCLC_Y53]	0.665
LISVSYDDWDY [GRIN2A_Y281]	0.813
PSNTEYPGPHS [TP63_Y171_D170E]	0.774
GFRPVYSEDEQ [CHST6_Y362_YF]	0.754

[Q] For the record CTNELYMMMRD [FGFR1_Y730] , what value of phosphorylation enrichment is listed for EPHB1 (UniProt P54762)?
[A] 1.86

[Q] Queued: PYRQWYESHYA [RPS8_Y113]
[A] 2.82

[Q] Queued: RSIGEYDVLRG [PRKDC_Y2936]
[A] 0.738

[Q] Queued: GFRVFYTPDSR [PTPRF_Y451_YF]
[A] 0.562

[Q] Queued: EEEPVYEAEPE [HCLS1_Y360]
[A] 0.664

[Q] Queued: VATSWYRSPEL [CDKL5_Y177_R175S]
[A] 0.417

====

Biological target: c-Src SH2
Test: SH2 binding enrichment of the phosphorylated peptide, bacterial display (enrichment ratio); higher = better substrate or ligand; peptides without Tyr show the background
Reported SH2 binding enrichment values follow for various sequences
Output: the number by itself.

# count of solved cases: 5
RELGEYPLAEY [ALDH1A3_Y492_A493P]	2.46
LEAVSYSSRYA [RNLS_Y190]	0.498
HTVVSYAKVRA [CLOCK_Y378_E380K]	1.12
IVAREYFSDAD [CAMK2A_Y106_E109D_YF]	0.467
FMLFQYLKQIE [RPAP3_Y569_D564Y_YF]	1.08

[Q] GET /values?readout=SH2 binding enrichment&item= KPMDTYYDSTR [DYNC2H1_Y2230]
[A] 0.898

[Q] Queued: GMTLSYLFREL [NDUFS8_Y74_P79L]
[A] 1.24

[Q] Queued: MKKKTYAMGGG [GAN_Y424_I423T]
[A] 0.438

[Q] Queued: LVPAWYIGFLC [KCNQ2_Y237_T234P]
[A] 0.543

[Q] Queued: AGADGYGYLAP [FOXL2_Y186]
[A] 1.09

[Q] Queued: INMKEYCKKDY [NTN1_Y490_K489E]
[A] 0.498
